- System Tested: beta-catenin/TCF4 engagement (Homo sapiens)
- Construct: expressed in transfected cells; host or cells: HEK293
- Sequence (P35222 whole entry): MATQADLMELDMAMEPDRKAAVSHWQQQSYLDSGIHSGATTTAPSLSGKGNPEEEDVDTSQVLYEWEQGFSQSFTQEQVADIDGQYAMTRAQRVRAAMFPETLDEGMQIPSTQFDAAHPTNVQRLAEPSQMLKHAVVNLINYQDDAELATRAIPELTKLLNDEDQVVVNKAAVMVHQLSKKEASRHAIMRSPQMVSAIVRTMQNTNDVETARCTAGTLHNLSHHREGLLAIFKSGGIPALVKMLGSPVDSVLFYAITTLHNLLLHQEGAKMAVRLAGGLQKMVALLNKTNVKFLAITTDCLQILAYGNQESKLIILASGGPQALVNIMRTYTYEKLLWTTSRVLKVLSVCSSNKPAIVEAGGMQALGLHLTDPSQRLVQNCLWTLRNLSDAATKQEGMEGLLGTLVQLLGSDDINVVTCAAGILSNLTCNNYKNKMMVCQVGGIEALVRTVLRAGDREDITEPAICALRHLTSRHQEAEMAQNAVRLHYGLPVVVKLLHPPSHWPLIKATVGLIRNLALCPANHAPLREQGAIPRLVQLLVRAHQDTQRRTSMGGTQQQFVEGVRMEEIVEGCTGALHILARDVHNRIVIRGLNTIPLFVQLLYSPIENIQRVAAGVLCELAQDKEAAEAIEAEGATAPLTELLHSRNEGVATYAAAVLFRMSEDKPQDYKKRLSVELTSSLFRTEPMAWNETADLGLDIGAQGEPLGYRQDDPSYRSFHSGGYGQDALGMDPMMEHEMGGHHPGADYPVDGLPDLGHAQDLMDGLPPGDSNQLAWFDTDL
- Assay Name: Nano-BRET target engagement assay (B-cat-Halo & TCF4-Luc in HEK293 cells)
- Format: cell-based
- Condition Label: HEK293, 10 uM; read-out: NanoBRET % inh @ 10 uM
Quantity Name: inhibition at 10 µM (%)
Respond with the bare value in %.

Ask | Report inhibition at 10 µM under test system beta-catenin/TCF4 engagement (Homo sapiens) for CC(=O)N1CCC[C@]12CC=CCCCC1(CCCC=CCCCOC(=O)N3CC[C@@](C(=O)N[C@@H](Cc4ccsc4)C(=O)N[C@@H](Cc4c[nH]c5ccc(F)cc45)C(=O)N[C@@H](Cc4c[nH]cn4)C(N)=O)(C3)NC(=O)[C@H](CC(N)=O)NC(=O)[C@H](Cc3ccccc3)NC(=O)[C@H](C)NC(=O)[C@H](C)NC(=O)[C@H](CC(=O)O)NC(=O)[C@H](CC(=O)O)NC1=O)NC(=O)[C@H](CC(C)(C)C)NC(=O)[C@H](CC(=O)O)NC2=O (stereo partly drawn) .
Reply | 8.1

Ask | Report inhibition at 10 µM under test system beta-catenin/TCF4 engagement (Homo sapiens) for CC(=O)N1CCC[C@]12CC=CCCCC1(CCCC=CCCCCOC(=O)N3CC[C@@](C(=O)N[C@@H](Cc4ccsc4)C(=O)N[C@@H](Cc4csc5ccccc45)C(=O)N[C@@H](CC(N)=O)C(=O)N[C@H](C)C(N)=O)(C3)NC(=O)[C@H](CC(N)=O)NC(=O)[C@H](Cc3ccccc3)NC(=O)[C@H](C)NC(=O)[C@H](C)NC(=O)[C@H](CC(=O)O)NC(=O)[C@H](CC(=O)O)NC1=O)NC(=O)[C@H](CC(C)(C)C)NC(=O)[C@H](CC(=O)O)NC2=O (stereo partly drawn) .
Reply | 27.6

Ask | Report inhibition at 10 µM under test system beta-catenin/TCF4 engagement (Homo sapiens) for CC(=O)N1CCC[C@]12CC=CCCCC1(CCCC=CCCCCOC(=O)N3CC[C@@](C(=O)N[C@@H](Cc4ccsc4)C(=O)N[C@@H](Cc4csc5ccccc45)C(=O)N[C@@H](CCC(N)=O)C(=O)N[C@H](C)C(N)=O)(C3)NC(=O)[C@H](CC(N)=O)NC(=O)[C@H](Cc3ccccc3)NC(=O)[C@H](C)NC(=O)[C@H](C)NC(=O)[C@H](CC(=O)O)NC(=O)[C@H](CC(=O)O)NC1=O)NC(=O)[C@H](CC(C)(C)C)NC(=O)[C@H](CC(=O)O)NC2=O (stereo partly drawn) .
Reply | 32.4

The measurements presented in this section are drawn from patent US20240116985A1.
